Values compiled from patent US6979686B1.

Molecular target: human p38 kinase alpha (Homo sapiens)
Construct: GST (N, cleaved yes); made in house; host or cells: E. coli DH10B
Sequence (Q16539 whole entry): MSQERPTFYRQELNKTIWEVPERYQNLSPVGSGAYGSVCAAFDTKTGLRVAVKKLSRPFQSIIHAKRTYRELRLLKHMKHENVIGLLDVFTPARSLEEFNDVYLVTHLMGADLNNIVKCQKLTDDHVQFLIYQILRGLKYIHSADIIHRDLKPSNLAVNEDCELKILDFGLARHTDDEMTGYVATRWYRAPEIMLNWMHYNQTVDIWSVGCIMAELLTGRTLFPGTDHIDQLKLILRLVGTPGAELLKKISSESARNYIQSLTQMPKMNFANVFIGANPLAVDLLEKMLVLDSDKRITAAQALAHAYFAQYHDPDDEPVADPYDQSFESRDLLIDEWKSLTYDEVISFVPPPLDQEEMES
Experiment: p38 kinase in vitro assay, phosphorylation of biotinylated PHAS-I with 32P-ATP
Assay type: biochemical
Conditions: in vitro P38-alpha kinase; read-out: P38 alpha kinase IC50
Description: The coding region of the human p38a cDNA was obtained by PCR-amplification from RNA isolated from the human monocyte cell line THP.1. […] Random primer, dNTP's and Superscript™ reagents were all purchased from Life-Technologies, Gaithersburg, Mass. The reaction was incubated at 42° C. for 1 hour. […]
pIC50: −log10 of the molar value.
Mark criterion not met for pIC50 values under 7, and criterion met for everything at or above.

compound=O=C(NCCCc1[nH]nc(-c2ccc(F)cc2)c1-c1ccncc1)c1cc(F)c(F)cc1F group="criterion met"
compound=Cc1c(-c2ccncc2)c(-c2ccc(F)cc2)nn1CC(=O)NC[C@@H]1CCCO1 group="criterion met"
compound="O=C(NCCCc1[nH]nc(-c2ccc(F)cc2)c1-c1ccncc1)NC1CN2CCC1CC2 (stereo not shown)" group="criterion met"
compound=COCCNC(=O)Cn1nc(-c2ccc(F)cc2)c(-c2ccncc2)c1C group="criterion not met"
compound=Cc1cc(C)c(S(=O)(=O)NCCCc2[nH]nc(-c3ccc(F)cc3)c2-c2ccncc2)c(C)c1 group="criterion not met"
compound=O=C(NCCCc1[nH]nc(-c2ccc(F)cc2)c1-c1ccncc1)c1cccc(F)c1F group="criterion met"
compound=O=C(NCc1ccc(S(=O)(=O)NCCCc2[nH]nc(-c3ccc(F)cc3)c2-c2ccncc2)s1)c1ccccc1 group="criterion met"
compound=CCNC(=O)Cn1nc(-c2ccc(F)cc2)c(-c2ccncc2)c1C group="criterion not met"
compound=N#Cc1cccc(C(=O)N2CCC(c3[nH]nc(-c4ccc(F)cc4)c3-c3ccncc3)CC2)c1 group="criterion not met"
compound=Cc1c(-c2ccncc2)c(-c2ccc(F)cc2)nn1CC(=O)NCCc1ccc(F)cc1 group="criterion not met"

# input Dear colleague, could you confirm whether CN1CCCC1CCNC(=O)NCCCc1[nH]nc(-c2ccc(F)cc2)c1-c1ccncc1 (stereo not shown) has pIC50 at or above 7?
# output criterion met

# input Does "O=[N+]([O-])c1ccccc1CS(=O)(=O)NCCCc1[nH]nc(-c2ccc(F)cc2)c1-c1ccncc1" have a reported pIC50 of at least 7?
# output criterion met

# input Hi, just wondering whether "O=C(c1cccc(F)c1)N1CCC(c2[nH]nc(-c3ccc(F)cc3)c2-c2ccncc2)CC1" shows pIC50 of 7 or higher.
# output criterion not met

# input Is pIC50 at least 7? Consider "Cc1c(-c2ccncc2)c(-c2ccc(F)cc2)nn1CC(=O)NCCc1cccnc1"
# output criterion met

# input For this compound, is measured pIC50 7 or higher? "Cc1noc(C)c1C(=O)N1CCC(c2[nH]nc(-c3ccc(F)cc3)c2-c2ccncc2)CC1"
# output criterion not met

* * *

Biological target: human p38 kinase alpha (Homo sapiens)
Construct: GST (N, cleaved yes); made in house; host or cells: E. coli DH10B
Experiment: p38 kinase in vitro assay, phosphorylation of biotinylated PHAS-I with 32P-ATP
Type: biochemical
Details: in vitro P38-alpha kinase; read-out: P38 alpha kinase IC50
readout name: IC50 (nM)
Answer with a number only, understood to be in nM.

Consider the reported IC50 for these compounds:
compound="O=C(c1cccs1)N1CCC(c2[nH]nc(-c3ccc(F)cc3)c2-c2ccncc2)CC1 [Example B-1384]" value=570
compound="O=C(c1ccc(C(F)(F)F)cc1F)N1CCC(c2[nH]nc(-c3ccc(F)cc3)c2-c2ccncc2)CC1 [Example B-1406]" value=1390

# input Please indicate IC50 recorded for O=C(c1ccc(Br)cc1)N1CCC(c2[nH]nc(-c3ccc(F)cc3)c2-c2ccncc2)CC1 [Example B-1388]
# output 570

# input Fill in IC50 for record Cc1c(-c2ccncc2)c(-c2ccc(F)cc2)nn1CC(=O)NCCc1cccs1 [Example B-2279]
# output 320

# input Assign IC50 to the following record: COc1cc(CNC(=O)Cn2nc(-c3ccc(F)cc3)c(-c3ccncc3)c2C)cc(OC)c1 [Example B-2305]
# output 540
